// data source = PubChem BioAssay AID2060489

System: 922993-354-T-J3-PDC complex spheroids, viability
Assay Name: Anticancer human tumor 922993-354-T-J3-PDC patient-derived endometrial carcinoma cell line growth inhibition [GQUAD]
Protocol Conditions: curve of first compound; second compound 0.1 µM
Quick list: pIC50 per entry.
Lab note — pIC50 values are minus log10 of concentrations in M.

CC(C)n1c(=O)n(C)c2cnc3cc(F)c(-c4ccc(OCCCN5CCCCC5)nc4)cc3c21 + Cc1cnc(CNC(=O)c2c(=O)c3ccc(N4CCCN(C)CC4)nc3n3c2sc2ccccc23)cn1: 6.59
COc1cc(C2c3cc4c(cc3C(OC3OC5COC(C)OC5C(O)C3O)C3COC(=O)C23)OCO4)cc(OC)c1O (stereo unspecified) + CN(C)c1ccc(Nc2c3ccc(NC(=O)CCN4CCCC4)cc3nc3cc(NC(=O)CCN4CCCC4)ccc23)cc1: 5.02
CC1COCCN1c1cc(C2(O)CC3CCC(C2)O3)c2cnn(-c3ccn[nH]3)c2n1 (stereo unspecified) + Cc1[nH]c2ccc(F)cc2c1-c1nc2c3cccnc3c3ncccc3c2[nH]1: 6.28
Cc1[nH]c2ccccc2c1CCNCc1ccc(/C=C/C(=O)NO)cc1 + Cc1cnc(CNC(=O)c2c(=O)c3ccc(N4CCCN(C)CC4)nc3n3c2sc2ccccc23)cn1: 6.96

(Q) Indicate its recorded pIC50; the molecule in question is CCCS(=O)(=O)Nc1ccc(F)c(C(=O)c2c[nH]c3ncc(-c4ccc(Cl)cc4)cc23)c1F + CN(C)c1ccc(Nc2c3ccc(NC(=O)CCN4CCCC4)cc3nc3cc(NC(=O)CCN4CCCC4)ccc23)cc1
(A) 5.07

(Q) Identify the reported pIC50 for the following entry. CC1COCCN1c1cc(C2(O)CC3CCC(C2)O3)c2cnn(-c3ccn[nH]3)c2n1 (stereo unspecified) + Cc1cnc(CNC(=O)c2c(=O)c3ccc(N4CCCN(C)CC4)nc3n3c2sc2ccccc23)cn1
(A) 7.06

(Q) // Input: CCCS(=O)(=O)Nc1ccc(F)c(C(=O)c2c[nH]c3ncc(-c4ccc(Cl)cc4)cc23)c1F + Cc1cnc(CNC(=O)c2c(=O)c3ccc(N4CCCN(C)CC4)nc3n3c2sc2ccccc23)cn1 . Output its pIC50 only.
(A) 6.11

(Q) For the molecule COc1cccc2c1C(=O)c1c(O)c3c(c(O)c1C2=O)CC(O)(C(=O)CO)CC3OC1CC(N)C(O)C(C)O1 (stereo unspecified) + CN(C)c1ccc(Nc2c3ccc(NC(=O)CCN4CCCC4)cc3nc3cc(NC(=O)CCN4CCCC4)ccc23)cc1 , report pIC50.
(A) 5.55

(Q) Given CCc1c2c(nc3ccc(O)cc13)-c1cc3c(c(=O)n1C2)COC(=O)[C@]3(O)CC + Cc1cnc(CNC(=O)c2c(=O)c3ccc(N4CCCN(C)CC4)nc3n3c2sc2ccccc23)cn1 , respond with its pIC50.
(A) 8.28

(Q) Please list pIC50 recorded for the molecule O=C(NO)c1cnc(N2CCN(S(=O)(=O)c3ccc4ccccc4c3)CC2)nc1 + Cc1[nH]c2ccc(F)cc2c1-c1nc2c3cccnc3c3ncccc3c2[nH]1
(A) 6.27

(Q) Please supply the value of reported pIC50 for the item CC[C@@]1(O)C(=O)OCc2c1cc1n(c2=O)Cc2cc3c(CN(C)C)c(O)ccc3nc2-1 + Cc1cnc(CNC(=O)c2c(=O)c3ccc(N4CCCN(C)CC4)nc3n3c2sc2ccccc23)cn1
(A) 6.90

(Q) Give the measured pIC50 for CC1COCCN1c1cc(-c2ccnn2C)c2ccnc(-c3ccn[nH]3)c2n1 (stereo unspecified) + CN(C)c1ccc(Nc2c3ccc(NC(=O)CCN4CCCC4)cc3nc3cc(NC(=O)CCN4CCCC4)ccc23)cc1
(A) 6.72

###

Tested on: 922993-354-T-J3-PDC complex spheroids, viability
Assay Name: Anticancer human tumor 922993-354-T-J3-PDC cell line growth inhibition [GQUAD];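 further: spheroids exposed to compounds for seven days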;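 on viability, T/C: 100% = DMSO vehicle control viability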
Protocol Conditions: second compound 1 µM; first compound 0.316 µM; stronger effect = lower value
# maps each entry to its viability, T/C
Your answer should be a plain number; it is taken to be in %.

Look over these answered cases.
C#Cc1c(F)ccc2cc(O)cc(-c3ncc4c(N5CC6CCC(C5)N6)nc(OCC56CCCN5CC(F)C6)nc4c3F)c12 (stereo not given) + CN(C)c1ccc(Nc2c3ccc(NC(=O)CCN4CCCC4)cc3nc3cc(NC(=O)CCN4CCCC4)ccc23)cc1: 88.7
C=CC(=O)N1CCN(c2nc(=O)n(-c3c(C)ccnc3C(C)C)c3nc(-c4c(O)cccc4F)c(F)cc23)C(C)C1 (stereo not given) + Cc1[nH]c2ccc(F)cc2c1-c1nc2c3cccnc3c3ncccc3c2[nH]1: 133
CC1COCCN1c1cc(C2(O)CC3CCC(C2)O3)c2cnn(-c3ccn[nH]3)c2n1 (stereo not given) + CN(C)c1ccc(Nc2c3ccc(NC(=O)CCN4CCCC4)cc3nc3cc(NC(=O)CCN4CCCC4)ccc23)cc1: 70.5
CCc1c2c(nc3ccc(O)cc13)-c1cc3c(c(=O)n1C2)COC(=O)[C@]3(O)CC + CN(C)c1ccc(Nc2c3ccc(NC(=O)CCN4CCCC4)cc3nc3cc(NC(=O)CCN4CCCC4)ccc23)cc1: 17.7

(Q) Tell me viability, T/C reported for CC[C@@]1(O)C(=O)OCc2c1cc1n(c2=O)Cc2cc3c(CN(C)C)c(O)ccc3nc2-1 + CN(C)c1ccc(Nc2c3ccc(NC(=O)CCN4CCCC4)cc3nc3cc(NC(=O)CCN4CCCC4)ccc23)cc1
(A) 45.1

(Q) Please report the measured viability, T/C for O=c1[nH]cc(F)c(=O)[nH]1 + Cc1[nH]c2ccc(F)cc2c1-c1nc2c3cccnc3c3ncccc3c2[nH]1
(A) 95.8

(Q) For the compound Cn1ncnc1[C@H]1c2n[nH]c(=O)c3cc(F)cc(c23)N[C@@H]1c1ccc(F)cc1 + CN(C)c1ccc(Nc2c3ccc(NC(=O)CCN4CCCC4)cc3nc3cc(NC(=O)CCN4CCCC4)ccc23)cc1 , report viability, T/C.
(A) 60.1

(Q) Please look at this compound and report its viability, T/C: CC(C)(O)C1CCC(Nc2ccc3ncc(-c4cccc(C(F)(F)F)c4)n3n2)CC1 (stereo not given) + Cc1cnc(CNC(=O)c2c(=O)c3ccc(N4CCCN(C)CC4)nc3n3c2sc2ccccc23)cn1
(A) 40.4

(Q) Give a short answer stating reported viability, T/C for C=CC(=O)N1CCN(c2nc(=O)n(-c3c(C)ccnc3C(C)C)c3nc(-c4c(O)cccc4F)c(F)cc23)C(C)C1 (stereo not given) + Cc1cnc(CNC(=O)c2c(=O)c3ccc(N4CCCN(C)CC4)nc3n3c2sc2ccccc23)cn1 .
(A) 46.9

###

Test system: 922993-354-T-J3-PDC complex spheroids, viability
Assay Name: Anticancer human tumor 922993-354-T-J3-PDC cell line growth inhibition [GQUAD];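 further: spheroids exposed to compounds for seven days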;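 on viability, T/C: 100% = DMSO vehicle control viability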
Protocol Conditions: second compound 0.0316 µM; first compound 10 µM; stronger effect = lower value
Experimental Endpoint: viability, T/C (%)
Respond with the bare value in %.

See these solved cases before continuing.
C=CCn1c(=O)c2cnc(Nc3ccc(N4CCN(C)CC4)cc3)nc2n1-c1cccc(C(C)(C)O)n1 + Cc1[nH]c2ccc(F)cc2c1-c1nc2c3cccnc3c3ncccc3c2[nH]1: 16.6
O=c1[nH]cc(F)c(=O)[nH]1 + Cc1cnc(CNC(=O)c2c(=O)c3ccc(N4CCCN(C)CC4)nc3n3c2sc2ccccc23)cn1: 57.4
CC(C)n1c(=O)n(C)c2cnc3cc(F)c(-c4ccc(OCCCN5CCCCC5)nc4)cc3c21 + Cc1cnc(CNC(=O)c2c(=O)c3ccc(N4CCCN(C)CC4)nc3n3c2sc2ccccc23)cn1: 52
COc1ncnc(C2CC2)c1-c1ncc2cnn(Cc3ccc(-c4nc(C(F)(F)F)cn4C(C)C)cc3)c2n1 + CN(C)c1ccc(Nc2c3ccc(NC(=O)CCN4CCCC4)cc3nc3cc(NC(=O)CCN4CCCC4)ccc23)cc1: 87.7

(Q) Item C=CCn1c(=O)c2cnc(Nc3ccc(N4CCN(C)CC4)cc3)nc2n1-c1cccc(C(C)(C)O)n1 + CN(C)c1ccc(Nc2c3ccc(NC(=O)CCN4CCCC4)cc3nc3cc(NC(=O)CCN4CCCC4)ccc23)cc1 : provide viability, T/C
(A) 12.4

(Q) Give me measured viability, T/C, please, for this compound: C=CC(=O)N1CCN(c2nc(=O)n(-c3c(C)ccnc3C(C)C)c3nc(-c4c(O)cccc4F)c(F)cc23)C(C)C1 (stereo unspecified) + Cc1[nH]c2ccc(F)cc2c1-c1nc2c3cccnc3c3ncccc3c2[nH]1
(A) 116

###

System: 922993-354-T-J3-PDC complex spheroids, viability
Assay Name: Anticancer human tumor 922993-354-T-J3-PDC cell line growth inhibition [GQUAD];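 further: spheroids exposed to compounds for seven days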;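 on viability, T/C: 100% = DMSO vehicle control viability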
Protocol Conditions: second compound 0.1 µM; first compound 1 µM; stronger effect = lower value
Experimental Endpoint: viability, T/C (%)
Field: numeric (%). Do not append units.

Check out these entries, answers already filled in.
CC(C)n1c(=O)n(C)c2cnc3cc(F)c(-c4ccc(OCCCN5CCCCC5)nc4)cc3c21 + CN(C)c1ccc(Nc2c3ccc(NC(=O)CCN4CCCC4)cc3nc3cc(NC(=O)CCN4CCCC4)ccc23)cc1: 73.3
Cc1cccc(N(C)C(=O)C2C(O)CCN2c2nc(C)cc(C(F)(F)F)c2C#N)c1 (configuration not stated) + Cc1cnc(CNC(=O)c2c(=O)c3ccc(N4CCCN(C)CC4)nc3n3c2sc2ccccc23)cn1: 52.9
COc1ccc([C@@H](O)c2cc(-c3ncnc4cc(N5CCOCC5)ccc34)c(F)cc2Cl)nn1 + Cc1cnc(CNC(=O)c2c(=O)c3ccc(N4CCCN(C)CC4)nc3n3c2sc2ccccc23)cn1: 44.3

(Q) Please report the measured viability, T/C for C=CCn1c(=O)c2cnc(Nc3ccc(N4CCN(C)CC4)cc3)nc2n1-c1cccc(C(C)(C)O)n1 + CN(C)c1ccc(Nc2c3ccc(NC(=O)CCN4CCCC4)cc3nc3cc(NC(=O)CCN4CCCC4)ccc23)cc1
(A) 88.6

(Q) Assign viability, T/C to the following record: CCCS(=O)(=O)Nc1ccc(F)c(C(=O)c2c[nH]c3ncc(-c4ccc(Cl)cc4)cc23)c1F + Cc1[nH]c2ccc(F)cc2c1-c1nc2c3cccnc3c3ncccc3c2[nH]1
(A) 81.2

(Q) Give reported viability, T/C value for COc1ccc([C@@H](O)c2cc(-c3ncnc4cc(N5CCOCC5)ccc34)c(F)cc2Cl)nn1 + Cc1[nH]c2ccc(F)cc2c1-c1nc2c3cccnc3c3ncccc3c2[nH]1
(A) 94.9

(Q) Please give measured viability, T/C of the following entry: CC(C)n1c(=O)n(C)c2cnc3cc(F)c(-c4ccc(OCCCN5CCCCC5)nc4)cc3c21 + Cc1[nH]c2ccc(F)cc2c1-c1nc2c3cccnc3c3ncccc3c2[nH]1
(A) 96.2
